Assay: Solubility study of AST-3424 (shaking at 25° C., HPLC content)
Type: physicochemical
Conditions: ethanol/propylene glycol (50:50, v/v), 25 °C, organic solvent or mixture, thermodynamic from solid, Ethanol/Propylene glycol (50:50, v/v), 4 h, read-out: Content (solubility test)
MEASURE NAME: solubility at 4 h
Remember to follow the number with its unit.

**Query** Return the recorded solubility at 4 h value; entry: C[C@H](OP(=O)(N1CC1)N1CC1)c1ccc([N+](=O)[O-])c(Oc2cccc(C(=O)N(C)C)c2)c1 [AST-3424]
**Result** 302 mg/mL

====

Test: Pharmacokinetics after single intravenous drip infusion, plasma LC-MS/MS
Type: in vivo, Philippine macaques
Details: male, Philippine macaque, cynomolgus monkey, plasma, iv, 0.58 mg/kg, AST-3424 0.58 mg/kg single intravenous infusion; plasma; individual animals 101, 102, 103; read-out: AUC(0−∞)
MEASURE NAME: AUC(0-inf) (ng·h/mL)
Numbers only here, please. The scale is ng·h/mL.

**Query** Return the recorded AUC(0-inf) value; entry: C[C@H](OP(=O)(N1CC1)N1CC1)c1ccc([N+](=O)[O-])c(Oc2cccc(C(=O)N(C)C)c2)c1 [AST-3424]
**Result** 409

====

Test: Pharmacokinetics after single intravenous drip infusion, plasma LC-MS/MS
Type: in vivo, Philippine macaques
Details: male, Philippine macaque, cynomolgus monkey, plasma, iv, 0.42 mg/kg, AST-3424-D6 single intravenous infusion, Table 15 heading 0.58 mg/kg (text: 0.42 mg/kg); plasma; read-out: AUC(0−t), Mean
MEASURE NAME: AUC(0-t) (ng·h/mL)
Numbers only here, please. The scale is ng·h/mL.

**Query** Return the recorded AUC(0-t) value; entry: [2H]C([2H])([2H])N(C(=O)c1cccc(Oc2cc([C@H](C)OP(=O)(N3CC3)N3CC3)ccc2[N+](=O)[O-])c1)C([2H])([2H])[2H] [AST-3424-D6]
**Result** 302

====

Experiment: Pharmacokinetics after single intravenous drip infusion, plasma LC-MS/MS
Format: in vivo, Philippine macaques
Settings: male, Philippine macaque, cynomolgus monkey, plasma, iv, 0.58 mg/kg, AST-3424 0.58 mg/kg single intravenous infusion; plasma; individual animals 101, 102, 103; read-out: Cmax
MEASURE NAME: Cmax (ng/mL)
Numbers only here, please. The scale is ng/mL.

**Query** Return the recorded Cmax value; entry: C[C@H](OP(=O)(N1CC1)N1CC1)c1ccc([N+](=O)[O-])c(Oc2cccc(C(=O)N(C)C)c2)c1 [AST-3424]
**Result** 696

====

Experiment: Pharmacokinetics after single intravenous drip infusion, plasma LC-MS/MS
Assay type: in vivo, Philippine macaques
Conditions: male, Philippine macaque, cynomolgus monkey, plasma, iv, 0.58 mg/kg, AST-3424 0.58 mg/kg single intravenous infusion; plasma; individual animals 101, 102, 103; read-out: Vz
Protocol: AST-3424 and AST-3424-D6 (i.e. the compound of formula I) were administered to Philippine macaques by intravenous drip infusion, and blood samples were collected at different appointed times. LC-MS/MS was used to determine concentrations of the test substances in plasma of the Philippine macaques after administration, and relevant pharmacokinetic parameters were calculated. […]
MEASURE NAME: Vd (L/kg)
Numbers only here, please. The scale is L/kg.

**Query** Return the recorded Vd value; entry: C[C@H](OP(=O)(N1CC1)N1CC1)c1ccc([N+](=O)[O-])c(Oc2cccc(C(=O)N(C)C)c2)c1
**Result** 0.231

====

Test: Solubility study of AST-3424 (shaking at 25° C., HPLC content)
Assay type: physicochemical
Settings: ethanol/propylene glycol (50:50, v/v), 25 °C, organic solvent or mixture, thermodynamic from solid, Ethanol/Propylene glycol (50:50, v/v), 48 h, read-out: Content (solubility test)
MEASURE NAME: solubility at 48 h (mg/mL)
Numbers only here, please. The scale is mg/mL.

**Query** Return the recorded solubility at 48 h value; entry: C[C@H](OP(=O)(N1CC1)N1CC1)c1ccc([N+](=O)[O-])c(Oc2cccc(C(=O)N(C)C)c2)c1 [AST-3424]
**Result** 274

====

Assay: Pharmacokinetics after single intravenous drip infusion, plasma LC-MS/MS
Type: in vivo, Philippine macaques
Conditions: male, Philippine macaque, plasma, intravenous, 0.42 mg/kg, AST-3424-D6 intravenous drip infusion 0.42 mg/kg; 0.5 hr; read-out: Plasma-drug concentration, mean
MEASURE NAME: concentration at 0.5 hr (ng/mL)
Numbers only here, please. The scale is ng/mL.

**Query** Return the recorded concentration at 0.5 hr value; entry: [2H]C([2H])([2H])N(C(=O)c1cccc(Oc2cc([C@H](C)OP(=O)(N3CC3)N3CC3)ccc2[N+](=O)[O-])c1)C([2H])([2H])[2H]
**Result** 502

====

Assay: Pharmacokinetics after single intravenous drip infusion, plasma LC-MS/MS
Type: in vivo, Philippine macaques
Conditions: male, Philippine macaque, cynomolgus monkey, plasma, iv, 0.42 mg/kg, AST-3424-D6 single intravenous infusion, Table 15 heading 0.58 mg/kg (text: 0.42 mg/kg); plasma; individual animals 101, 102, 103; read-out: Vss
MEASURE NAME: Vd (L/kg)
Numbers only here, please. The scale is L/kg.

**Query** Return the recorded Vd value; entry: [2H]C([2H])([2H])N(C(=O)c1cccc(Oc2cc([C@H](C)OP(=O)(N3CC3)N3CC3)ccc2[N+](=O)[O-])c1)C([2H])([2H])[2H]
**Result** 0.198

====

Assay: Solubility study of AST-3424 (shaking at 25° C., HPLC content)
Format: physicochemical
Conditions: phosphate buffer of pH 6.8, 25 °C, pH 6.8, aqueous buffer, thermodynamic from solid, pH 6.8 (Phosphate buffer), 1 h, read-out: Content (solubility test)
MEASURE NAME: solubility at 1 h (mg/mL)
Numbers only here, please. The scale is mg/mL.

**Query** Return the recorded solubility at 1 h value; entry: C[C@H](OP(=O)(N1CC1)N1CC1)c1ccc([N+](=O)[O-])c(Oc2cccc(C(=O)N(C)C)c2)c1 [AST-3424]
**Result** 23

====

Experiment: Pharmacokinetics after single intravenous drip infusion, plasma LC-MS/MS
Format: in vivo, Philippine macaques
Conditions: male, cynomolgus monkey, plasma, iv, 0.42 mg/kg, AST-3424-D6 single intravenous infusion, Table 15 heading 0.58 mg/kg (text: 0.42 mg/kg); plasma; read-out: Cl, Mean (converted)
MEASURE NAME: clearance (mL/min/kg)
Numbers only here, please. The scale is mL/min/kg.

**Query** Return the recorded clearance value; entry: [2H]C([2H])([2H])N(C(=O)c1cccc(Oc2cc([C@H](C)OP(=O)(N3CC3)N3CC3)ccc2[N+](=O)[O-])c1)C([2H])([2H])[2H] [AST-3424-D6]
**Result** 22.3

====

Experiment: Pharmacokinetics after single intravenous drip infusion, plasma LC-MS/MS
Format: in vivo, Philippine macaques
Settings: male, Philippine macaque, plasma, intravenous, 0.58 mg/kg, AST-3424 intravenous drip infusion 0.58 mg/kg; 1 hr; read-out: Plasma-drug concentration, mean
MEASURE NAME: concentration at 1 h (ng/mL)
Numbers only here, please. The scale is ng/mL.

**Query** Return the recorded concentration at 1 h value; entry: C[C@H](OP(=O)(N1CC1)N1CC1)c1ccc([N+](=O)[O-])c(Oc2cccc(C(=O)N(C)C)c2)c1
**Result** 46.6

====

Assay: Solubility study of AST-3424 (shaking at 25° C., HPLC content)
Type: physicochemical
Settings: phosphate buffer of pH 6.8, 25 °C, pH 6.8, aqueous buffer, thermodynamic from solid, pH 6.8 (Phosphate buffer), 24 h, read-out: Content (solubility test)
MEASURE NAME: solubility at 24 h (mg/mL)
Numbers only here, please. The scale is mg/mL.

**Query** Return the recorded solubility at 24 h value; entry: C[C@H](OP(=O)(N1CC1)N1CC1)c1ccc([N+](=O)[O-])c(Oc2cccc(C(=O)N(C)C)c2)c1
**Result** 22.6

====

Experiment: Pharmacokinetics after single intravenous drip infusion, plasma LC-MS/MS
Format: in vivo, Philippine macaques
Conditions: male, Philippine macaque, plasma, intravenous, 0.42 mg/kg, AST-3424-D6 intravenous drip infusion 0.42 mg/kg; 0.5 hr; individual animals 101, 102, 103; read-out: Plasma-drug concentration
MEASURE NAME: concentration at 0.5 hr (ng/mL)
Numbers only here, please. The scale is ng/mL.

**Query** Return the recorded concentration at 0.5 hr value; entry: [2H]C([2H])([2H])N(C(=O)c1cccc(Oc2cc([C@H](C)OP(=O)(N3CC3)N3CC3)ccc2[N+](=O)[O-])c1)C([2H])([2H])[2H]
**Result** 485

Origin of the recorded values: patent US20220395464A1
